biological target: human TMEM106B (human, UniProt Q9NUM4 2-274); assay: cell-based or functional assay; note: test concentration or dose not given here
Reported % Protection from CPE values for a set of binders
Give the quantity in %, number only.

• TM-25 (antibody, V domains shown) VH: EVQLVESGGDLVKPGGSLRLSCAASGFTFSGYGMSWIRQTPDKRLEWVATISSGGRYTVYPDSVKGRFTMSRDNVKNTLYLQMSSLKSEDTALYYCARDNFYSYAMDYWGLGTSVTVSA VL: DIVMTQAAFSNPVTLGTSASISCRSSKSLLHSNGITYLFWYLQKPGQSPQLLIYQMSNLASGVPDRFSSSGSGTDFTLRISRVEAEDVGVYYCAQNLELWTFGGGTKLEIK = 106
• TM-30 (antibody, V domains shown) VH: QVQLQQSGPELVKPGASVKLSCKASDNTFTNYDVNWVRQRPGQGLEWIGWIYPRDGTTIYNEKFKGRATLTVDTSSSTAYMELHSLTSEDSAVFFCARTLPQAMDYWGQGTSVTVSS VL: DVLMTQSPLSLPVSLGDQVSISCRSSQTIVHRNGNTYLEWYLQKPGQSPKLLIYKVSNRFSGVPDRFSGSGSGTDFTLKISRVEAEDLGVYYCFQGSHLPWTFGGGTKLEIK = 104
• TM-71 (antibody, V domains shown, mouse hybridoma mAb) VH: EVQLVESGGALVKPGGSLKLSCAASGFTFSNYAMSWVRQTPEKRLEWVATIGYGGSYSYYPDSVKGRFTISRDNAKNTLYLQMSSLRSEDTALYYCARQDSNYEGVWFAYWGQGTLVTVSS VL: DIVMTQAAPSVPVTPGESVSISCRSSKSLLHTNGNTYLFWFIQRPGQSPHLLIYRKSNLASGVPDRFSGSGSGTAFTLRISRVEAEDVGVYYCMQHLEYPFTFGSGTKLEIK = 3.2
• TM-56 (antibody, V domains shown, mouse hybridoma mAb) VH: QVHLQQSGAELAKPGASVKLSCKASGYTFTSYWMHWVKQRPGQGLEWIGYINPSSGYSKYNQRFKDKATLTADKSSTTAYMHLSSLTYADSAVYYCTREGGSISDWYFDVWGTGTTVTVSS VL: DIEMTQAAPSVPVTPGESVSISCRSSKSLLQNNGNTYLYWFLQRPGQPPQLLIYRMSNLASGVPDRFSGSGSGTAFTLRISRVEAEDVGVYYCMQHLEYPYTFGGGTKLEIK = 89.7
• TM-54 (antibody, V domains shown) VH: QVQMQQSGPVLVKPGASVTLSCKASGYTFTTYDLNWVKQRPGQGLEWIGWIYPRGGSTEYNEKFKGKATLTVDTSSSTAYMELHSLTSEDSAVYFCAKYSIYAMDYWGQGTSVTVSS VL: DVLMTQTPLSLPVSLGDQASISCRSSQSIVHGNGNTYLEWYLQKPGQSPKLLIYKVSNRFSGVPDRFSGSGSGTDFTLKISRVEAEDLGVYYCFQGSHVPWTFGGGTKLEMK = 68.1

// returns reported % Protection from CPE for input TM-17 (antibody, V domains shown) VH: QVQLQQSGAELIRPGTSVKVSCKASGYAFTDYLIEWVKQRPGQGLEWIGVINPGSGGTNYNEKFKGKAKLTADKSSSTAYMQLSSLTSEDSAVYFCVRSSYGVYVAYPMDYWGQGTSVTVSS VL: DIQMTQSPSSLSASLGERVSLTCRASQDIGSNLNWLQQEPDGTIKRLIYATSSLDSGVPKRFSGSRSGSDYSLTISSLESEDFVDYYCLQYASSPRTFGGGTKLEIK
3.7

// returns reported % Protection from CPE for input TM-28 (antibody, V domains shown) VH: EVQLQQSGPVLVKPGPSVKISCMASVFTFNDYYIHWVKQSHGKSLEWIGLVYPYNGGTNYNQNFKGKATLTVDTSSRTAYMELNSLTSEDSAVYYCARSYFSNPIGYWGQGTLVTVSE VL: DIVMTQSPSSLSVSVGEKVTVSCKSSQSLLNSGNQKNYLAWYQQKPGQPPKLLIYGASTRESGVPDRFTGSGSGTDFTLTISSVQAEDLAVYYCQNDHSYPLTFGAGTKLELK
85.4

// returns reported % Protection from CPE for input TM-83 (antibody, V domains shown) VH: QVQLQQPGTELVKPGALVKLSCKASGYTFTTYWIHWVKQRPGQGLEWIGNINPSNGNTKNNERFKTKATLTVDKSSSTAYMQLSSLTSEDSAVYYCVRGDYYGTSYPFWGQGTLVTVSS VL: DVVMTQTPLSLPVSLGDQASISCRSSQSLVHSNGITYLHWYLQKPGQSPKLLIYKVSNRFSGVPDRFSGSGSGTDFTLKISRVEAEDLGVYFCSQSTHVPYTFGGGTKLEIK
4.3

// returns reported % Protection from CPE for input TM-19 (antibody, V domains shown) VH: DVQLQQSGAELVRPGASVKLSCTASGFNIKDYYMYWVKQRPEQGLEWIGRIDPEDGDTENAPKFRGMATMTADTSSNTAYLQLNSLTSEDTAVYYCTTRIGNLYHVMDYWGHGTSVTVSS VL: DVLMTQTPLSLPVSLGDQASISCRSSQSIVHSNGNTYLEWYLQKPGQAPKLLIDKVFNRFSGVPDRFSGSGSGTDFTLKISRVEAEDLGVYYCFQGSHVPFTFGSGTKLEIK
99.8

// returns reported % Protection from CPE for input TM-35 (antibody, V domains shown) VH: QVQLQQSGPELVRPGTSVKISCKAPGYTFTRHWMQWVRQRPGQGLEWIGEILPGSNNIYYNEKVKGKATLTVDTSSSTSYMQLSSLTSEDSAVYFCARSLYDYDGVFAYWGQGTLVTVSA VL: DVLMTQIPLSLPVSLGDQASISCRSSQSIVHRNGNTYLEWYLQKPGQSPKLLIYKVSNRFSGVPDRFSGSGSGTDFTLKISRVEAEDLGVYYCFQGSHVPYTFGGGTKLEIK
90.4
